Where do the numbers come from? From PubChem BioAssay (NCI).

- System: COLO 205 colon
- ASSAY_PROTOCOL: NCI-60 one-dose screen, 48 h
- STATED_CONDITIONS: 10 µM unless noted
This is part of a sample that, as a whole, favours compounds with a hit. Of some 83,000 tested, about 20% had one in any assay. Activity calls are given as the source filed them. How the source made its calls: active means growth percent below 10; inactive means the rest.
Labels: y (active), n (inactive)

>>> print(df.to_string())
                               query_smiles  class_label
0  C1=C\COCc2cc(ccc2OCCN2CCCC2)Nc2nccc(n2)-c2cccc(c2)COC/1            y
1  CNc1ncc2cc(-c3cc(NC(=O)NCCC(C)(C)C)c(F)cc3C)c(C)nc2n1            y
2  O=C1NC(=O)/C(=C/c2ccc3nccc(-c4ccncc4)c3c2)S1            y
3  CS(=O)(=O)N1CCN(Cc2cc3nc(-c4cccc5[nH]ncc45)nc(N4CCOCC4)c3s2)CC1            y
4  COc1ccc2c(CCc3ccc(Cl)cc3)c3[n+](cc2c1OC)CCc1cc2c(cc1-3)OCO2            n

====

The following compounds are shown together with reported growth values.
- Test system: NCI/ADR-RES ovarian
- ASSAY_PROTOCOL: NCI-60 one-dose screen, 48 h (100 = growth as untreated, 0 = no growth, -100 = all killed)
- STATED_CONDITIONS: 10 µM unless noted
This is part of a sample that, as a whole, favours compounds with a hit. Of some 83,000 tested, about 20% had one in any assay. Activity calls are given as the source filed them. Rule for the calls: active = growth percent below 10; inactive = the rest.
QUANTITY: growth

                                    compound         assay_target                     result
 0  Cn1cc(-c2ncnc3ccc(-c4cnc(Cl)c(NS(C)(=O)=O)c4)cc23)c2ccccc21  NCI/ADR-RES ovarian           20.6% (inactive)
 1   CC1(C=O)NC(=O)NC1=O (centres undefined)  NCI/ADR-RES ovarian            107% (inactive)
 2  COc1cc(OC)c(/C=C/S(=O)(=O)Cc2ccc(OC)c(NCC(=O)O)c2)c(OC)c1  NCI/ADR-RES ovarian              9.1% (active)
 3  CC(=O)NCC(=O)N1[C@@H]2CC[C@H]1c1ccc(Nc3ncc(C(F)(F)F)c(NC4CCC4)n3)cc12  NCI/ADR-RES ovarian  59.7% [2.5 µM] (inactive)
 4        CC(C)c1ccc(/C=N/Nc2nc3ccccc3s2)cc1  NCI/ADR-RES ovarian           92.6% (inactive)
 5  O=C(NCCO)Nc1ccc(-c2nc(N3CCOCC3)c3cccn3n2)cc1  NCI/ADR-RES ovarian           34.5% (inactive)
 6  CC(C)=CCc1cc2c(cc1O)C1=C(C(=O)C3=C(C1=O)S(=O)(=O)CCN3)C(C=C(C)C)O2 (centres undefined)  NCI/ADR-RES ovarian           73.8% (inactive)
 7                              N#CC(C#N)=NO  NCI/ADR-RES ovarian            100% (inactive)
 8  CCNCCNc1cc(-c2ccc(Cl)c(Cl)c2)c(C#N)c2nc3ccccc3n12  NCI/ADR-RES ovarian            -73.4% (active)
 9  Cc1cccc(Cl)c1NC(=O)c1cnc(Nc2cc(N3CCOCC3)cc(N3CCOCC3)c2)s1  NCI/ADR-RES ovarian           23.6% (inactive)
10  COc1cnc2c(c1)C(=O)c1c-2n(CCCn2ccnc2)c(=O)c2cc(Cl)ccc12  NCI/ADR-RES ovarian             4.79% (active)
11  Cc1ccsc1C(NC(=O)c1ccccc1)c1cc(Cl)c2cccnc2c1O (centres undefined)  NCI/ADR-RES ovarian             7.05% (active)
12  Cc1cc(C)n(CC(=O)Nc2ccc(-c3nc4ccccc4s3)cc2)n1  NCI/ADR-RES ovarian            103% (inactive)
13  CC1(O)CCC(Nc2cc(-c3ccc(C(F)(F)F)cc3)c(C#N)c3nc4ccccc4n23)CC1 (centres undefined)  NCI/ADR-RES ovarian           61.8% (inactive)
14  NC(=O)Nc1cc(-c2cccc(F)c2)sc1C(=O)N[C@H]1CCCNC1  NCI/ADR-RES ovarian             10% (inactive)
15  O=CC(OC(=O)c1ccccc1)C(OC(=O)c1ccccc1)C(COC(c1ccccc1)(c1ccccc1)c1ccccc1)OC(=O)c1ccccc1 (centres undefined)  NCI/ADR-RES ovarian           92.8% (inactive)
16  CNc1ncc2cc(-c3cc(NC(=O)NCCC(C)(C)C)c(F)cc3C)c(C)nc2n1  NCI/ADR-RES ovarian           24.7% (inactive)
17  Cc1oc2c(C(=O)N/N=C\c3ccc(O)cc3O)c[nH]c2c1C  NCI/ADR-RES ovarian             1.19% (active)
18   O=c1[nH]c(N2CCOCC2)nc2scc(-c3ccccc3)c12  NCI/ADR-RES ovarian           98.1% (inactive)
19  COc1cc(-c2cc(-c3ccc(Nc4ccnc5cc(Cl)ccc45)cc3)nc(N3CCOCC3)n2)cc(OC)c1OC  NCI/ADR-RES ovarian              9.9% (active)
20  COc1ccc(-c2cc3c(oc2=O)-c2ccccc2OC3OC(C)=O)cc1 (centres undefined)  NCI/ADR-RES ovarian           93.8% (inactive)
21  CN1[C@@H]2CC[C@H]1/C(=C\c1ccccc1)C1=C2[C@@H](c2ccccc2)C(C#N)=C(N)O1  NCI/ADR-RES ovarian           90.2% (inactive)
22  CN1CCN(CCCOc2cccc3nc(Nc4ccc(Cl)c(C(F)(F)F)c4)ccc23)CC1  NCI/ADR-RES ovarian           -0.603% (active)
23  O=C1C=CC2(NN=C(c3ccccc3)N2c2cccc(Cl)c2)c2cccc(O)c21 (centres undefined)  NCI/ADR-RES ovarian             56% (inactive)
24  CS(=O)(=O)N1CCc2c(-c3cnc(N)nc3)nc(N3CCOCC3)nc21  NCI/ADR-RES ovarian           12.9% (inactive)
25  CN1CC[C@@H](c2c(O)cc(O)c3c(=O)cc(-c4ccccc4Cl)oc23)[C@@H]1CO  NCI/ADR-RES ovarian             -3.1% (active)
26  Cc1ccc(N=C2CSc3nnc(-c4csc5c4CCCC5)n3N2)cc1  NCI/ADR-RES ovarian             1.16% (active)
27  COC(=O)[C@]12CC[C@@H](C)[C@H](C)[C@@H]1C1=CC[C@@H]3[C@@]4(C)C(C#N)=CC(C)=C4CC[C@@]3(C)[C@]1(C)CC2  NCI/ADR-RES ovarian           89.2% (inactive)
28  CC[C@@H]1C(=O)N(C)c2cnc(Nc3ccc(C(=O)NC4CCC(N5CCN(CC6CC6)CC5)CC4)cc3OC)nc2N1C(C)C (some centres undefined)  NCI/ADR-RES ovarian           25.8% (inactive)
29  CNS(=O)(=O)Nc1nccc(Cc2c(C)c3ccc(Oc4ncccn4)cc3oc2=O)c1F  NCI/ADR-RES ovarian           70.6% (inactive)
30  O=C(COc1cccc(/C=C2\Cc3ccc(Cl)cc3C2=O)c1)Nc1nccs1  NCI/ADR-RES ovarian           76.6% (inactive)
31  FC(F)(F)c1ccc(CNc2ccc(Cc3c[nH]c4ncc(Cl)cc34)cn2)cn1  NCI/ADR-RES ovarian           12.6% (inactive)
32  C[N+](C)(CCOC(c1ccccc1)c1ccccc1)CC(=O)OCc1ccccc1  NCI/ADR-RES ovarian            105% (inactive)
33  COC(=O)[C@@H](C)CNS(=O)(=O)N(c1cc(C(F)(F)F)cc(C(F)(F)F)c1)C1CCN(Cc2ccc(F)cc2)CC1  NCI/ADR-RES ovarian             51% (inactive)
34  CCOc1cccc(/C=N/NC(=O)c2ccccc2Nc2ccnc(C(F)(F)F)c2)c1O  NCI/ADR-RES ovarian            -0.31% (active)
35  Cn1cc(-c2ccc(F)c(C(F)(F)F)c2)nc1C1CCN(c2ncnc3[nH]ncc23)CC1  NCI/ADR-RES ovarian           61.2% (inactive)
36  CCc1nc2ccc(Cc3ccc(C(=O)NO)cc3)cc2c(=O)n1CCc1ccccc1  NCI/ADR-RES ovarian            -17.3% (active)
37  COc1cc2c(cc1OCCCCCCN1CCN(c3ncnc4ccccc34)CC1)N=CC1CCCN1C2=O (centres undefined)  NCI/ADR-RES ovarian             6.93% (active)
38  O=C1OCC2=C1C(c1cccc(F)c1)c1cc3c(cc1N2CCO)OCCO3 (centres undefined)  NCI/ADR-RES ovarian             6.36% (active)
